- TARGET OR TEST SYSTEM: pm5 (human, sulfated tyrosines at Y15 and Y17)
- Sequence (peptide, as listed by the source): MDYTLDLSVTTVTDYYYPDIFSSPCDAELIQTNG
- TEST: ELISA on coated peptide [cont.]
- Experimental: The specific binding properties of antibodies were evaluated by ELISA with coated CCR8 related peptides (500 ng/mL) in carbonate/bicarbonate buffer. Different peptides were used as described in Table 1 (see Example 1). Each anti-CCR8 mAb was tested at 1 μg/mL then diluted at 1/10. […] Then the optical density (OD) was determined by using a multiplate reader (Tecan, Lyon, France) and correlated with mAb reactivity on the panel of coated peptides.

{"columns": ["BINDER", "binding result"],
 "data": [
  ["3-47 (antibody, V domains shown) VH: QVQLQQPGAELVKPGASVKMSCKASGYTFTSYNMHWVKQTPGQGLEWIGAISPGNGDTSYNQKFKGKATLTADKSSSTAYMQLSSLTSEDSAVYYCARGKNGNVPMDYWGQGTSVTVSS VL: DIVLTQSPASLAVSLGQRATISCRASESVEYYGTSLMKWYQQKPGQPPKLLIYAASIVESGVPARFSGSGSGTDFSLNIHPVEEDDIAMYFCQQSRKVPWTFGGGTKLEIK", "binds"],
  ["3-5 (antibody, V domains shown) VH: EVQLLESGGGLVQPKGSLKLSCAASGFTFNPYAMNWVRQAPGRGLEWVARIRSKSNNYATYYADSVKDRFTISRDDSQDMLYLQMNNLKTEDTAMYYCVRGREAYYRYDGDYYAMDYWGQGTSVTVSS VL: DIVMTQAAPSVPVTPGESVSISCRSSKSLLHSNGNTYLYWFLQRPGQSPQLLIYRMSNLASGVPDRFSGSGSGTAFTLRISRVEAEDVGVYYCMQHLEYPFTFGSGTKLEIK", "binds"],
  ["3-34 (antibody, V domains shown) VH: EVQLQQSGPELVKPGASVKISCKTSGYTFTEYTIHWVKQSHGKSLEWVGGINPDNGNTRYDQKFKGKATLTIDKSSSTAYMELRSLTSEDSAVYYCARVARSSGSGPYAMDYWGQGTSVTVSS VL: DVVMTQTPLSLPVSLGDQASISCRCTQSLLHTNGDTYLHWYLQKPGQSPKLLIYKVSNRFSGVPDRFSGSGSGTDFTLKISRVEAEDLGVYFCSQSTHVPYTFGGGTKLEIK", "binds"]
]}
